# tested_system: ActRIIA and ActRIIB (on TGFB/SMAD SBE Reporter HEK293 cells) (human)
# Sequence (chain, as listed by the source, chain 1 of 2): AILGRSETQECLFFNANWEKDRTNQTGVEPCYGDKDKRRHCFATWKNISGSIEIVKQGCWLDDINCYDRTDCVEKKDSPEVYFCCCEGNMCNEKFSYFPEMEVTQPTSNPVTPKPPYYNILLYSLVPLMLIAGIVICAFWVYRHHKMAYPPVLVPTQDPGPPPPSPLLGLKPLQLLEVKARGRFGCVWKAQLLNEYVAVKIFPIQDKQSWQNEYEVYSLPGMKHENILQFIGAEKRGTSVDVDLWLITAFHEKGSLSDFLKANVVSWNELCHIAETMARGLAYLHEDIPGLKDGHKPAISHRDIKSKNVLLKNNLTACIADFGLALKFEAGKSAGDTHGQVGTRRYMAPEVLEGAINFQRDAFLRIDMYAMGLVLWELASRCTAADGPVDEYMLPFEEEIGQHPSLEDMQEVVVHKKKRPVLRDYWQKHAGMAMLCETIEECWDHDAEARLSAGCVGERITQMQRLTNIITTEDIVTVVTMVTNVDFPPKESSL
# Sequence (chain, as listed by the source, chain 2 of 2): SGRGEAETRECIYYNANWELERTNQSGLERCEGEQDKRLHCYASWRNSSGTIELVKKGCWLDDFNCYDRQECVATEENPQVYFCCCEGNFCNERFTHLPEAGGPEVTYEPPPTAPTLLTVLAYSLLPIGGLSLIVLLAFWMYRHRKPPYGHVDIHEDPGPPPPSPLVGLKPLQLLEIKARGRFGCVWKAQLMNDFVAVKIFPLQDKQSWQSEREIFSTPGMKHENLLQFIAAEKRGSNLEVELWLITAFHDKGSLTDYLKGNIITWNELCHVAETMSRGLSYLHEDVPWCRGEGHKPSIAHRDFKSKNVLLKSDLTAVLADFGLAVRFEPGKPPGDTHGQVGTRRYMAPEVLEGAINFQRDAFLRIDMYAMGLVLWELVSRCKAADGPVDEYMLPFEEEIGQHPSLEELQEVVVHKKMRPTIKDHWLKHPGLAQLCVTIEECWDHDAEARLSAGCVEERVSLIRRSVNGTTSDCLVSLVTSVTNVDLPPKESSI
# measurement_description: cell-based or functional assay
Catalogue of binders with associated IC90, Activin SMAD RGA
quantity_name: IC90, Activin SMAD RGA (nM)

>>> meas_value("Antibody Ofaschlupfer (antibody, V domains shown, full-length IgG) VH: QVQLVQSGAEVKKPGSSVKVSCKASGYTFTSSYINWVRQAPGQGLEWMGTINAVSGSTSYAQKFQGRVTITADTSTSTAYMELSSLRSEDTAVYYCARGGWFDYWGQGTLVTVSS VL: QSALTQPRSVSGSPGQSVTISCTGTSSDVGSKNYVNWYQQHPGKAPKLMIYGVSKRESGVPDRFSGSKSGNTASLTISGLQAEDEADYYCGTFAGGKYYGVFGGGTKLTVL")
2.27
>>> meas_value("Antibody Ochsauga (antibody, V domains shown, full-length IgG) VH: QVQLVQSGAEVKKPGASVKVSCKASGYTFTSSYINWVRQAPGQGLEWMGTINAVSGSTSYAQKFQGRVTMTRDTSISTAYMELSRLRSDDTAVYYCARGGWFDVWGQGTLVTVSS VL: QSALTQPASVSGSPGQSITISCTGTSSDIGSYNYVNWYQQHPGKAPKLMIYGVSKRESGVSNRFSGSKSGNTASLTISGLQAEDEADYYCGTFAGGSYYGVFGGGTKLTVL")
3.15
>>> meas_value("Antibody Bebballesgmias (antibody, V domains shown, full-length IgG) VH: QVQLVQSGAEVKKPGSSVKVSCKASGYKFTSSYINWVRQAPGQGLEWMGTINPVSGSTSYAQKFQGRVTITADTSTSTAYMELSSLRSEDTAVYYCARGGWFDYWGQGTLVTVSS VL: QSALTQPRSVSGSPGQSVTISCTGTSSDVGSYNYVNWYQQHPGKAPKLMIYGVSKRPRGVPDRFSGSKSGNTASLTISGLQAEDEADYYCGTFAGGSYYGVFGGGTKLTVL")
2.88
